// MAP4K1 (HPK1) (Homo sapiens, UniProt Q92918) IC50 records

IN: Sample CCC(=O)N1CC(Oc2ncc([C@](C)(N)COC)c3cc(Nc4ccc5c(n4)[C@@H](C)[C@H](C)OC5=O)ncc23)C1 [Compound 120] — what was its IC50?
OUT: 0.25 nM

IN: Then C[C@@H]1c2nc(Nc3cc4c(C(C)(C)N)cnc(OC5CN(C(=O)[C@@H]6C[C@@H]6C)C5)c4cn3)ccc2C(=O)OC1(C)C [Compound 67] ?
OUT: 0.2 nM

IN: Then C[C@@H]1c2nc(Nc3cc4c(C(C)(C)N)cnc(OC5CN(C(=O)C6COC6)C5)c4cn3)ccc2C(=O)OC1(C)C [Compound 77] ?
OUT: 0.36 nM

IN: Then COC(=O)N1CC[C@H](Oc2ncc(C(C)(C)N)c3cc(Nc4ccc5c(n4)[C@@H](C)[C@H](C)OC5=O)ncc23)C1 [Compound 35] ?
OUT: 0.3 nM

IN: Then CC(=O)N1CC[C@H](Oc2ncc(C(C)(C)N)c3cc(Nc4ccc5c(n4)[C@@H](C)[C@H](C)OC5=O)ncc23)C1 [Compound 25] ?
OUT: 1.38 nM

Next:
IN: Sample C[C@@H]1OC(=O)c2ccc(Nc3cc4c(C(C)(C)N)cnc(OC5CN(C(=O)C6COC6)C5)c4cn3)nc2[C@H]1C [Compound 54] — what was its IC50?
OUT: 0.21 nM

IN: Then COC[C@@](C)(N)c1cnc(O[C@H]2CN(C(=O)C3CC3)[C@@H]2C)c2cnc(Nc3ccc4c(n3)[C@@H](C)[C@H](C)OC4=O)cc12 [Compound 89] ?
OUT: 0.35 nM

IN: Then CC(C)(N)c1cnc(OC2CN(C(=O)C3CC3)C2)c2cnc(Nc3ccc4c(n3)C3(CC3)C(C)(C)OC4=O)cc12 [Compound 63] ?
OUT: 0.19 nM

IN: Then COCC(=O)N1CC(Oc2ncc(C(C)(C)N)c3cc(Nc4ccc5c(n4)[C@@H](C)C(C)(C)OC5=O)ncc23)C1 [Compound 61] ?
OUT: 0.21 nM

IN: Then CC(=O)N1CC(Nc2ncc(C(C)(C)N)c3cc(Nc4ccc5c(n4)[C@@H](C)C(C)(C)OC5=O)ncc23)C1 [Compound 22] ?
OUT: 0.54 nM

IN: Then CCOC(=O)N1CC(Oc2ncc(C(C)(C)N)c3cc(Nc4ccc5c(n4)[C@@H](C)[C@H](C)OC5=O)ncc23)C1 [Compound 37] ?
OUT: 0.15 nM

IN: Then C[C@@H]1c2nc(Nc3cc4c(C(C)(C)N)cnc(O[C@H]5C[C@@H](C(=O)N6CC(F)C6)C5)c4cn3)ccc2C(=O)OC1(C)C [Compound 94] ?
OUT: 0.14 nM

IN: Then CCC[C@@](C)(N)c1ncc(OC2CN(C(C)=O)C2)c2cnc(Nc3ccc4c(n3)CC(C)(C)OC4=O)cc12 (single isomer, unassigned) [Compound 112] ?
OUT: 0.24 nM

====

Measured pEC50 by item
test system: Primary T Cell; experiment: T cell enhancement of cytokines: IL2 measurement (HTRF) in expanded CD3+ T cells stimulated with anti-CD3/anti-CD28; assay type: cell-based, human; conditions: Homo sapiens, T-cell, 24 h, plate-bound anti-CD3 and soluble anti-CD28, 24 h, read-out: IL-2 Primary T Cell EC50
Keep it numeric: pEC50 is minus log10 of the concentration in mol/L.

The examples below pair each entry with its known result.
IN: Sample CC[C@@](C)(N)c1cnc(OC2CN(C(=O)C3CC3)C2)c2cnc(Nc3ccc4c(n3)[C@@H](C)[C@H](C)OC4=O)cc12 — what was its pEC50?
OUT: 7.59

IN: Then C[C@@H]1c2nc(Nc3cc4c(C(C)(C)N)cnc(O[C@@H]5CN(C(=O)C6CC6)[C@H]5C)c4cn3)ccc2C(=O)OC1(C)C ?
OUT: 7.76

Consider now this further compound.
IN: Sample C[C@@H]1c2nc(Nc3cc4c(C(C)(C)N)cnc(OC5CN(C(=O)N6CC(F)(F)C6)C5)c4cn3)ccc2C(=O)OC1(C)C — what was its pEC50?
OUT: 7.75

====

// MAP4K1 (HPK1) (Homo sapiens) pIC50 records
Keep it numeric: pIC50 is minus log10 of the concentration in mol/L.

The examples below pair each entry with its known result.
IN: Param readout= pIC50; system= MAP4K1 (HPK1) (Homo sapiens); entry= C[C@@H]1OC(=O)c2ccc(Nc3cc4c(C(C)(C)N)cnc(OC5CN(C(=O)[C@@H]6C[C@@H]6C)C5)c4cn3)nc2[C@H]1C ; returns value.
OUT: 9.64

IN: Then C[C@@H]1c2nc(Nc3cc4c(C(C)(C)N)cnc(OC[C@@H]5C[C@H]5C(=O)N(C)C)c4cn3)ccc2C(=O)OC1(C)C (single isomer, unassigned) ?
OUT: 9.70

IN: Then C[C@@H]1OC(=O)c2ccc(Nc3cc4c(C(C)(C)N)cnc(OC5CN(C(=O)C6(F)CC6)C5)c4cn3)nc2[C@H]1C ?
OUT: 9.80

IN: Then C[C@@H]1c2nc(Nc3cc4c(C(C)(C)N)cnc(O[C@H]5C[C@@H](C(=O)N6CC(F)(F)C6)C5)c4cn3)ccc2C(=O)OC1(C)C ?
OUT: 9.96

IN: Then COC(=O)N1CC(Oc2ncc(C(C)(C)N)c3cc(Nc4ccc5c(n4)[C@@H](C)[C@H](C)OC5=O)ncc23)C1 ?
OUT: 9.52

IN: Then C[C@@H]1c2nc(Nc3cc4c(C(C)(C)N)cnc(OC[C@@H]5C[C@@H]5C(=O)N(C)C)c4cn3)ccc2C(=O)OC1(C)C (single isomer, unassigned) ?
OUT: 9.51

IN: Then COCC(C)(N)c1cnc(OC2CN(C(=O)C3CC3F)C2)c2cnc(Nc3ccc4c(n3)C(C)C(C)OC4=O)cc12 (single isomer, unassigned) ?
OUT: 10.05

IN: Then CC(=O)N1CC(C)(Oc2ncc(C(C)(C)N)c3cc(Nc4ccc5c(n4)[C@@H](C)[C@H](C)OC5=O)ncc23)C1 ?
OUT: 9.51

IN: Then CC[C@@H](N)c1ccc(OC2CN(C(=O)C3CC3)C2)c2cnc(Nc3ccc4c(n3)[C@@H](C)C(C)(C)OC4=O)cc12 (single isomer, unassigned) ?
OUT: 9.72

IN: Then C[C@@H]1OC(=O)c2ccc(Nc3cc4c(C(C)(C)N)cnc(OC5CN(C(=O)[C@@H]6CCCO6)C5)c4cn3)nc2[C@H]1C ?
OUT: 9.77

Next:
IN: Param readout= pIC50; system= MAP4K1 (HPK1) (Homo sapiens); entry= C[C@@H]1OC(=O)c2ccc(Nc3cc4c(C(C)(C)N)cnc(OC5CN(C(=O)C6(C(F)(F)F)CC6)C5)c4cn3)nc2[C@H]1C ; returns value.
OUT: 9.92

IN: Then CCC(=O)N1C[C@@H](Oc2ncc(C(C)(C)N)c3cc(Nc4ccc5c(n4)[C@@H](C)C(C)(C)OC5=O)ncc23)[C@@H]1C ?
OUT: 9.77

====

Measured pEC50 by item
tested on: Primary T Cell; experiment: T cell enhancement of cytokines: IL2 measurement (HTRF) in expanded CD3+ T cells stimulated with anti-CD3/anti-CD28; type: cell-based, human; conditions: Homo sapiens, T-cell, 24 h, plate-bound anti-CD3 and soluble anti-CD28, 24 h, read-out: IL-2 Primary T Cell EC50
Keep it numeric: pEC50 is minus log10 of the concentration in mol/L.

The examples below pair each entry with its known result.
IN: Sample C[C@@H]1c2nc(Nc3cc4c(C(C)(C)N)cnc(OC5CN(C(=O)[C@@H]6C[C@@H]6F)C5)c4cn3)ccc2C(=O)OC1(C)C — what was its pEC50?
OUT: 7.98

IN: Then CC(C)(N)c1cnc(OC2CN(C(=O)C3CC3)C2)c2cnc(Nc3ccc4c(n3)C3(CC3)C(C)(C)OC4=O)cc12 ?
OUT: 7.63

Next:
IN: Sample COC[C@@](C)(N)c1cnc(OC2CN(C(=O)C3CC3)C2)c2cnc(Nc3ccc4c(n3)[C@@H](C)[C@H](C)OC4=O)cc12 — what was its pEC50?
OUT: 7.20

IN: Then C[C@@H]1OC(=O)c2ccc(Nc3cc4c(C(C)(C)N)cnc(OC5CN(C(=O)C6COC6)C5)c4cn3)nc2[C@H]1C ?
OUT: 7.53

====

// MAP4K1 (HPK1) (Homo sapiens) IC50 records
Give just the number in nM; leave the unit off.

The examples below pair each entry with its known result.
IN: Sample C[C@@H]1OC(=O)c2ccc(Nc3cc4c(C(C)(C)N)cnc(OC5CN(C(=O)[C@H]6CC6(C)C)C5)c4cn3)nc2[C@H]1C [Compound 69] — what was its IC50?
OUT: 0.14

IN: Then C[C@@H]1c2nc(Nc3cc4c(C(C)(C)N)cnc(OC5CN(C(=O)N6CC(F)(F)C6)C5)c4cn3)ccc2C(=O)OC1(C)C [Compound 101] ?
OUT: 0.13

IN: Then COC1(C(=O)N2CC(Oc3ncc(C(C)(C)N)c4cc(Nc5ccc6c(n5)[C@@H](C)[C@H](C)OC6=O)ncc34)C2)CC1 [Compound 79] ?
OUT: 0.31

Next:
IN: Sample C[C@@H]1c2nc(Nc3cc4c(C(C)(C)N)cnc(OC5CC(C)(C(=O)N(C)C)C5)c4cn3)ccc2C(=O)OC1(C)C (single isomer, unassigned) [Compound 81] — what was its IC50?
OUT: 0.16

IN: Then COC[C@@](C)(N)c1cnc(OC2CN(C(=O)C3CC3)C2)c2cnc(Nc3ccc4c(n3)[C@@H](C)C(C)(C)OC4=O)cc12 [Compound 16] ?
OUT: 0.47

IN: Then C[C@@H]1OC(=O)c2ccc(Nc3cc4c(C(C)(C)N)cnc(O[C@@H]5CCN(C(=O)C6CC6)C5)c4cn3)nc2[C@H]1C [Compound 51] ?
OUT: 0.36
